Reported pIC50 values are given for each entry in this list.
Tested on: IL-5
test.details: Cytokine inhibition in PHA-stimulated primary human PBMCs: IL-5
Format: cell-based
run.conditions: PBMC
Please treat pIC50 as minus the base-10 logarithm of the molar concentration.

[[record]]
structure = "COc1ccc(OC)c(-c2ccc(NC(=O)c3ccncc3F)cc2)c1"
system_tested = "IL-5"
observation_type = "pIC50"
measured = 7.68


Query for IL-5: what pIC50 does the record show for COc1ccc(OC)c(-c2ccc(NC(=O)c3cccc(F)c3F)cc2)c1 ?
7.96

Fill in the recorded pIC50 for this compound, with IL-5 as test system: CSc1ccccc1-c1ccc(NC(=O)c2ccncc2C)cc1
8.15
